molecular target: F508delCFTR (Homo sapiens, UniProt P13569, DEL508-508); construct: expressed in transfected cells; host or cells: CFBE41o- human lung-derived epithelial cells (CFBE41o-F508delCFTR-HRP), doxycycline-inducible; assay: Cell Surface Expression-Horse Radish Peroxidase (CSE-HRP) assay, test compound without co-corrector; assay type: cell-based; conditions: test compound without co-corrector
Sequence (P13569 with tags, fused parts or gaps DEL508-508): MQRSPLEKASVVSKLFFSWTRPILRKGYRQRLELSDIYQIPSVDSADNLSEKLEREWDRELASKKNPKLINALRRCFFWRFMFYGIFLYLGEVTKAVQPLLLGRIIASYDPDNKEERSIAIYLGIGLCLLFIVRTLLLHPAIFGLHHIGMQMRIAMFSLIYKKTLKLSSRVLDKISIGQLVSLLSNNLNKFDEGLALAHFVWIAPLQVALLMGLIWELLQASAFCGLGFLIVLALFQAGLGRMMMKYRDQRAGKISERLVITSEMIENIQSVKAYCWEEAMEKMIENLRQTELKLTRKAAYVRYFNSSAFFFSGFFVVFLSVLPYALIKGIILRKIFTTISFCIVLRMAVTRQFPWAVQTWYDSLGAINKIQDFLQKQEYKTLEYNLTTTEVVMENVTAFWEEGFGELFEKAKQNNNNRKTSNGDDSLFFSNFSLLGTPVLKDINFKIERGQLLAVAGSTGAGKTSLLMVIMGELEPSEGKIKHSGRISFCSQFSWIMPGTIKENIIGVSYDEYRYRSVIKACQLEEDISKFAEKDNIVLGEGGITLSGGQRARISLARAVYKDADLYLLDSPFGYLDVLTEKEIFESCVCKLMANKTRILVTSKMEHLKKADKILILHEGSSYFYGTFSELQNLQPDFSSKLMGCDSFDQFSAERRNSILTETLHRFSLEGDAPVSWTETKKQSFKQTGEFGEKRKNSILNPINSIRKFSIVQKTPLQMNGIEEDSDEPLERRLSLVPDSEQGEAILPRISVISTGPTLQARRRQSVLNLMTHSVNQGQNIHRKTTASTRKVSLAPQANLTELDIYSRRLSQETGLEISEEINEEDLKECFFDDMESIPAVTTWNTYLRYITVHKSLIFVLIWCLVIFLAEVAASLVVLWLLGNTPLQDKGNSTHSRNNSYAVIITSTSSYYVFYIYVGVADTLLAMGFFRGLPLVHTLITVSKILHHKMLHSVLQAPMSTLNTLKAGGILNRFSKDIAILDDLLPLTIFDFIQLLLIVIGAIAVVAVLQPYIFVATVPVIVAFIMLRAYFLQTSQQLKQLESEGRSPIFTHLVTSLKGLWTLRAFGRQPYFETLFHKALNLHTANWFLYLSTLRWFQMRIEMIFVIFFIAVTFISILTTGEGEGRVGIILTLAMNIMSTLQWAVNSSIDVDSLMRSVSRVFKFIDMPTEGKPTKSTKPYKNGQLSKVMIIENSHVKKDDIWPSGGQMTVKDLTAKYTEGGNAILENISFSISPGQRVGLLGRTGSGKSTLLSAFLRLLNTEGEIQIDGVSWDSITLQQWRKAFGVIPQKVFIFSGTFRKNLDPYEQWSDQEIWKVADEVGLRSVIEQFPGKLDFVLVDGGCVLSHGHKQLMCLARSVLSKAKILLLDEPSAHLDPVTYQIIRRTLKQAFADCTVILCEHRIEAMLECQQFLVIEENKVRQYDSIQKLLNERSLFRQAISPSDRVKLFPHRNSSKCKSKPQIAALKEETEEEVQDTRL
Entries and their EC50

Q) Which EC50 reading was recorded for the molecule COc1ccc(C2CCC2)c2c1[C@@H](C(=O)NS(=O)(=O)c1cccc3cnn(C)c13)CC2 (single isomer, unassigned) [Example I-141] ?
A) 3 to 10 µM

Q) Which EC50 reading was recorded for the molecule Cc1ccccc1S(=O)(=O)NC(=O)C1(C)CCc2cccc(Cl)c21 (stereo not drawn) [II-19] ?
A) 3 to 10 µM

Q) Which EC50 reading was recorded for the molecule COc1ccc(C2CC2)c2c1C(C(=O)NS(=O)(=O)c1cccc3ccccc13)CCC2 (stereo not drawn) [Example I-88] ?
A) < 3 µM

Q) Which EC50 reading was recorded for the molecule CCC1(C(=O)NS(=O)(=O)c2ccccc2OC(F)(F)F)CCc2c(Cl)cccc21 (stereo not drawn) [II-60] ?
A) ≥ 10 µM

Q) Which EC50 reading was recorded for the molecule COc1cccc2c1CCC2C(=O)NS(=O)(=O)c1ccccn1 (stereo not drawn) [III-84] ?
A) ≥ 10 µM

Q) Which EC50 reading was recorded for the molecule CCC1(C(=O)NS(=O)(=O)c2cccc3c2OC(F)(F)O3)CCc2c(Cl)cccc21 (stereo not drawn) [Example I-13] ?
A) ≥ 10 µM
